Test system: HIV-1Ba-L
Test: Inhibition of virus replication in MAGI-CCR5 cells (β-galactosidase reporter)
Type: cell-based
Conditions: HIV-1Ba-L in MAGI-CCR5 cells
Method: The anti-viral activity of dihydropyrimidines was shown by inhibition of virus replication in MAGI-CCR5 cells. MAGI-CCR5 cells are derived from HeLa-CD4-LTR-β-galactosidase cells. […] Total cell count and viability was visually assessed using a hemacytometer and trypan blue exclusion. Compounds were evaluated at six concentrations (triplicate wells/concentration). […]
Reported metric: TI (TC50/IC50)

1) CC1=C(c2nc(-c3ccc(C#N)cc3)cs2)C(c2cc(O)cc(O)c2)NC(=O)N1 (centres unmarked) [Example 80] : D (D < 10.0)
2) CC1=C(c2nc(-c3ccc(C#N)cc3)cs2)C(c2ccccn2)NC(=O)N1 (centres unmarked) [Example 7] : C (C < 50.0 to 10.0)
3) COc1ccc(-c2csc(C3=C(C)NC(=O)NC3c3cc(Br)cs3)n2)cc1 (centres unmarked) [Example 40] : D (D < 10.0)
4) CC1=C(c2nc(-c3ccc(C#N)cc3)cs2)C(Cc2ccc(C)cc2)NC(=O)N1 (centres unmarked) [Example 94] : C (C < 50.0 to 10.0)
5) CC1=C(c2nc(-c3ccc(C#N)cc3)cs2)C(c2ccncc2)NC(=O)N1 (centres unmarked) [Example 9] : C (C < 50.0 to 10.0)

Ask | Dear colleague, I am looking for the recorded TI (TC50/IC50) of the following compound: CC1=C(c2nc(-c3ccc(C#N)cc3)cs2)C(c2ccc(N(C)C)cc2)NC(=O)N1 (centres unmarked) [Example 54]
Reply | C (C < 50.0 to 10.0)

Ask | # TI (TC50/IC50) lookup, item CC1=C(c2nc(-c3ccc(C#N)cc3C)cs2)C(c2cccnc2F)NC(=O)N1 (centres unmarked) [Example 83]
Reply | B (B < 100.0-50.0)

* * *

test system: HIV-1Ba-L; assay: Inhibition of virus replication in MAGI-CCR5 cells (β-galactosidase reporter); assay type: cell-based; conditions: HIV-1Ba-L in MAGI-CCR5 cells, 48 hours, β-galactosidase reporter expression; read-out: IC50
Each entry below carries its recorded IC50.
Numeric only. Scale: nM

1) Cc1cn([C@H]2C[C@H](N=[N+]=[N-])[C@@H](CO)O2)c(=O)[nH]c1=O [AZT, reference compound] : 80

We next turn to a different compound, shown below.
Ask | Give its IC50 value. Item: Cc1ccc(-c2ccc3c(c2)C=C(C(=O)Nc2ccc(C[N+](C)(C)C4CCOCC4)cc2)CCC3)cc1.[Cl-] [TAK 779, reference compound]
Reply | 4

* * *

Parameter TI (TC50/IC50): see the listing below.
tested on: HIV-1Ba-L; experiment: HIV-1Ba-L replication in PBMCs (supernatant RT end-point); conditions: Virus Ba-L in PBMCs (Ba-L vs A17 comparison)

1) Cc1cn([C@H]2C[C@H](N=[N+]=[N-])[C@@H](CO)O2)c(=O)[nH]c1=O [AZT, reference compound] : >88.6

Ask | If you can, please state the reported TI (TC50/IC50) value of Cc1cc(C#N)cc(C)c1Oc1nc(Nc2ccc(C#N)cc2)nc(N)c1Br [TMC-125, Etravirine, reference compound] .
Reply | >402.0
